Reference for the values: patent US7968577B2

Assayed System: human full-length glucocorticoid receptor (Homo sapiens, UniProt P04150)
Construct: recombinantly expressed human full-length glucocorticoid receptor; purchased PanVera Co., Madison, Wis; P2816
Sequence (P04150 whole entry): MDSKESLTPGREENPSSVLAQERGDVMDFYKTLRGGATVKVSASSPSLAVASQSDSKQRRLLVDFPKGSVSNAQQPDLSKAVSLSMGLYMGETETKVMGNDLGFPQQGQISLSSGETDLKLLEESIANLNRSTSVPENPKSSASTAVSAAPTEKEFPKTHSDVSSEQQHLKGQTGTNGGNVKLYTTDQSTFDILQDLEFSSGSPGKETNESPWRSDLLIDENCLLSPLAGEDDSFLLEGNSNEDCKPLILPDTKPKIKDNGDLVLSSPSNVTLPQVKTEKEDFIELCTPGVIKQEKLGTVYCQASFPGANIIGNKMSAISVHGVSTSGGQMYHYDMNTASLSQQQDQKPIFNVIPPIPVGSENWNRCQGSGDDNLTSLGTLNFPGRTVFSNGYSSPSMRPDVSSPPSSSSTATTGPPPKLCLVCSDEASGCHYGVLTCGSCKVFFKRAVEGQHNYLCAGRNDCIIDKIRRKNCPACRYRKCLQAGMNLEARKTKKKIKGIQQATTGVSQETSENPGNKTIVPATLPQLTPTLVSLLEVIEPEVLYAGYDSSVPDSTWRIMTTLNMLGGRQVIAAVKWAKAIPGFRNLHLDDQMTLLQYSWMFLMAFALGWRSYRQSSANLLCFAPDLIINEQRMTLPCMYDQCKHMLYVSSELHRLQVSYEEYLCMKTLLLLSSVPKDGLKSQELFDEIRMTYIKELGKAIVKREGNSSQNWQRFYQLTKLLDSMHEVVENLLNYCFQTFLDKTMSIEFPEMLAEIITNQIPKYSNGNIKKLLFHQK
Run Description: Glucocorticoid Receptor Binding Assay (II), fluorescence polarization competitor kit (Fluormone GS1)
Condition Notes: GR Binding Assay (II)
Observable: Ki (nM)

See these solved cases before continuing.
COc1ccc([C@@H](c2ccccc2)C(C)(C)C(=O)Nc2nccs2)cc1C#N | 45.7
COc1ccc([C@@H](c2ccccc2)C(C)(C)C(=O)NC2CCCC2)cc1 | 1530
Cc1cccc(C(c2ccc(N3CCOCC3)cc2)C(C)(C)C(=O)Nc2nncs2)c1 (centres unmarked) | 13.6
CC(=O)Nc1ccc(C(c2ccccc2)C(C)(C)C(=O)Nc2nncs2)cc1 (centres unmarked) | 1500
CC(C)(C(=O)Nc1ncns1)[C@@H](c1ccccc1)c1ccc(O)cc1 | 8.1

[1] CC(C)(C(=O)Nc1nccs1)C(c1ccc(F)cc1)c1ccc(N2CCOCC2)cc1 (centres unmarked)
[2] COc1ccc([C@H](c2ccccc2)C(C)(C)C(=O)Nc2nncs2)cc1
Of 1 and 2 , whose reported Ki is the larger number? API: response body contains the label of the selected item. 2
(2: 51.9 nM, 1: 12.6 nM)

====

Assayed System: human full-length glucocorticoid receptor (Homo sapiens, UniProt P04150)
Construct: recombinantly expressed human full-length glucocorticoid receptor; purchased PanVera Co., Madison, Wis; P2816
Run Description: Glucocorticoid Receptor Binding Assay (II), fluorescence polarization competitor kit (Fluormone GS1)
Condition Notes: GR Binding Assay (II)
Observable: Ki (nM)

Example entries and their recorded answers appear below.
CC(C)(C(=O)Nc1nccs1)C(c1ccccc1)c1ccc(Br)c(F)c1 (stereo not drawn) | 13.2
CC(C)(C(=O)Nc1nccs1)[C@H](c1ccccc1)c1ccc(O)cc1 | 12.9
CC(C)(C(=O)Nc1nncs1)C(c1ccccc1)c1ccc(Br)c(F)c1 (stereo not drawn) | 10.9
Cc1ccc(CNc2ccc(C(c3ccccc3)C(C)(C)C(=O)Nc3nncs3)cc2)cc1 (stereo not drawn) | 18.6

[A] COc1ccc([C@@H](c2ccccc2)C(C)(C)C(=O)NC2CCC2)cc1
[B] CC(C)(C(=O)Nc1nncs1)C(c1ccccc1)c1ccc(N2CCOCC2)c(F)c1 (stereo not drawn)
[C] CC(C)(C(=O)NC1CCC1)[C@@H](c1ccccc1)c1ccc(O)cc1
[D] COc1ccc(C(c2ccccc2)C(C)(C)C(=O)Nc2nccs2)c(F)c1 (stereo not drawn)
Rank the 4 compounds: largest Ki first, smallest last. Quick reminder: the answer is the labels in the order asked. A, C, D, B
(A: 1160 nM, C: 392 nM, D: 74.7 nM, B: 17.8 nM)

====

Assayed System: human full-length glucocorticoid receptor (Homo sapiens)
Construct: recombinantly expressed human full-length glucocorticoid receptor; purchased PanVera Co., Madison, Wis; P2816
Run Description: Glucocorticoid Receptor Binding Assay (II), fluorescence polarization competitor kit (Fluormone GS1)
Condition Notes: GR Binding Assay (II)
Observable: Ki (nM)

[A] CC(C)(C(=O)Nc1nccs1)[C@H](c1ccccc1)c1ccc(OC(=O)C2CCCO2)cc1 (some centres unmarked)
[B] COc1ccc([C@H](c2ccccc2)C(C)(C)C(=O)Nc2ncc(C)s2)cc1
Compare Ki: is it lower for A or for B ? Answer with the label corresponding to your selection. A

[P] CC(C)(C(=O)Nc1nccs1)C(c1ccc(N2CCOCC2)cc1)c1cccc(F)c1 (single isomer, unassigned)
[Q] CC(C)(C(=O)Nc1nccs1)C(c1ccccc1)c1ccc(-c2ccncc2)cc1 (centres unmarked)
[R] CC(C)(C(=O)Nc1nncs1)C(c1ccccc1)c1ccc(N2CCNCC2)cc1 (centres unmarked)
[S] Cc1csc(NC(=O)C(C)(C)[C@H](c2ccccc2)c2ccc(O)cc2)n1
Order the 4 molecules from highest to lowest Ki. Use the labels to give the ranking in the order requested. R, S, P, Q
